The measured values listed here are drawn from patent US8822517B2.

testedOn: serotoninergic 5-HT1A receptor (Homo sapiens, UniProt P08908)
Sequence (P08908 whole entry): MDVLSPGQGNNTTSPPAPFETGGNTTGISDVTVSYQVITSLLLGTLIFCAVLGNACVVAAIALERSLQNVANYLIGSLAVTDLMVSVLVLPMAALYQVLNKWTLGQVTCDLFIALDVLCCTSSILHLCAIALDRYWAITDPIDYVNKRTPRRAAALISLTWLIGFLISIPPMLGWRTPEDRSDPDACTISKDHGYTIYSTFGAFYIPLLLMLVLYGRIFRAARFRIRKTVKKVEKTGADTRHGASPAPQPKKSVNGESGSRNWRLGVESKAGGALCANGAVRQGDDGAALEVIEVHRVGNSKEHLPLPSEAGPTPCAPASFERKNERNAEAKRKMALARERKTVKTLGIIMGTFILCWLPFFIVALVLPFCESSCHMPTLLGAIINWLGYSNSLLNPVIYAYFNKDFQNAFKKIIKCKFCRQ
methodDescription: Binding assay 5-HT1A (h), [3H]8-OH-DPAT, HEK-293 cells
Set-up: expressed in transfected cells; host or cells: HEK-293 cells
experimentalConditions: read-out: 5-HT1A
measuredQuantity: inhibition at 1 µM (%)
Give just the numeric value; % need not be written.

Query :: # lookup: inhibition at 1 µM of O=S(=O)(NCCCCN1CCC(c2noc3cc(F)ccc23)CC1)c1ccc2ccccc2c1
Result :: 81

Query :: Next compound: O=S(=O)(NCCCCN1CCN(c2nsc3ccccc23)CC1)c1cccs1
Result :: 90

Query :: Follow-up entry: O=C1COc2c(cccc2N2CCN(CCCCNS(=O)(=O)c3ccc4ccccc4c3)CC2)N1
Result :: 84

Query :: Next record, please: Cc1c(S(=O)(=O)NCCCN2CCN(c3nsc4ccccc34)CC2)sc2ccc(F)cc12
Result :: 98

Query :: Same for O=S(=O)(NCCN1CCN(c2nsc3ccccc23)CC1)c1cccc2ccccc12
Result :: 98

Query :: And then O=S(=O)(NCCCCN1CCC(c2noc3cc(F)ccc23)CC1)c1cccc(F)c1 , what is it?
Result :: 38

Query :: Another compound: O=S(=O)(NCCCCN1CCN(c2nsc3ccccc23)CC1)c1ccc(Cl)s1
Result :: 89

Query :: Cool, now O=S(=O)(NCCCN1CCN(c2nsc3ccccc23)CC1)c1cccc2scnc12
Result :: 98

Query :: For Cn1ccc2cc(S(=O)(=O)NCCCN3CCC(c4noc5cc(F)ccc45)CC3)ccc21 then?
Result :: 42

Query :: Could you do the same for Cc1c(S(=O)(=O)NCCCN2CCC(c3noc4cc(F)ccc34)CC2)sc2ccc(Cl)cc12 , please?
Result :: 36

Query :: Same again, this time with O=S(=O)(NCCCN1CCC(c2noc3cc(F)ccc23)CC1)c1csc2ccccc12
Result :: 51

Query :: Same read-out for Cc1cccc(S(=O)(=O)NCCN2CCN(c3nsc4ccccc34)CC2)c1 ?
Result :: 99

Query :: Would you kindly repeat that for O=S(=O)(NCCCN1CCC(c2noc3cc(F)ccc23)CC1)c1cc2cccnc2[nH]1 ?
Result :: 63

Query :: Would you mind doing Cc1[nH]c2ccc(Cl)cc2c1C1=CCN(CCCCNS(=O)(=O)c2ccc(Cl)cc2)CC1 as well?
Result :: 94

Query :: Another compound to check: O=S(=O)(NCCCN1CCC(c2noc3cc(F)ccc23)CC1)c1ccc(C(F)(F)F)cc1
Result :: 86

Query :: How about O=S(=O)(NCCCN1CCN(c2nsc3ccccc23)CC1)c1ccc(-c2ccccc2)cc1 ?
Result :: 96

Query :: Can you handle O=S(=O)(NCCCCN1CCC(c2noc3cc(F)ccc23)CC1)c1ccc(Br)cc1 next?
Result :: 67

Query :: Param item: O=S(=O)(NCCCN1CCN(c2nsc3ccccc23)CC1)c1ccc(C(F)(F)F)cc1
Result :: 99

Query :: Same lookup for O=c1[nH]c2cccc(N3CCN(CCCNS(=O)(=O)c4ccc5ccccc5c4)CC3)c2[nH]1 , please.
Result :: 99

Query :: Repeat with Cc1c(S(=O)(=O)NCCCCN2CCN(c3nsc4ccccc34)CC2)sc2ccc(F)cc12
Result :: 100

Query :: Next record, please: O=S(=O)(NCCCN1CCN(c2nsc3ccccc23)CC1)c1ccc(Br)cc1
Result :: 99

Query :: Try this compound next: O=S(=O)(NCCCCN1CCN(c2noc3ccccc23)CC1)c1ccc(Br)cc1
Result :: 73

Query :: Note, next up: O=c1[nH]c2cccc(N3CCN(CCCCNS(=O)(=O)c4cccc5ccccc45)CC3)c2[nH]1
Result :: 98

Query :: // repeat for O=S(=O)(NCCCN1CCN(c2cccc3c2OCCO3)CC1)c1cccc(Cl)c1 and report
Result :: 95

Query :: Same again, this time with O=S(=O)(NCCCCN1CCN(c2cccc3[nH]ccc23)CC1)c1cccc(C(F)(F)F)c1
Result :: 95

Query :: Then O=C1Cc2cc(S(=O)(=O)NCCCCN3CCC(c4noc5cc(F)ccc45)CC3)ccc2N1 ?
Result :: 56

Query :: Now try O=S(=O)(NCCCCN1CCC(c2noc3cc(F)ccc23)CC1)c1ccc(Cl)s1 .
Result :: 81

Query :: Try this compound too: O=S(=O)(NCCCCN1CCN(c2noc3ccccc23)CC1)c1cnc2ccccn12
Result :: 57

Query :: Try O=S(=O)(NCCCCN1CCN(c2noc3ccccc23)CC1)c1ccc(F)c(Cl)c1 next.
Result :: 51

Query :: Try this compound too: O=S(=O)(NCCCCN1CCN(c2cccc3[nH]ccc23)CC1)c1ccc(F)c(F)c1
Result :: 99

Query :: Can you handle O=S(=O)(NCCCCN1CCC(c2noc3cc(F)ccc23)CC1)c1ccc(C(F)(F)F)cc1 next?
Result :: 50

Query :: Same question, O=S(=O)(NCCCCN1CCN(c2nsc3ccccc23)CC1)c1cc2ccccc2s1 this time
Result :: 98

Query :: Another compound to look at: O=S(=O)(NCCCN1CCN(c2nsc3ccccc23)CC1)c1cccc(O)c1
Result :: 94
